# test_target: T1, interleukin-23 receptor (IL-23R) (UniProt Q5VWK5 24-629, limits assumed)
# T1 sequence (looked up): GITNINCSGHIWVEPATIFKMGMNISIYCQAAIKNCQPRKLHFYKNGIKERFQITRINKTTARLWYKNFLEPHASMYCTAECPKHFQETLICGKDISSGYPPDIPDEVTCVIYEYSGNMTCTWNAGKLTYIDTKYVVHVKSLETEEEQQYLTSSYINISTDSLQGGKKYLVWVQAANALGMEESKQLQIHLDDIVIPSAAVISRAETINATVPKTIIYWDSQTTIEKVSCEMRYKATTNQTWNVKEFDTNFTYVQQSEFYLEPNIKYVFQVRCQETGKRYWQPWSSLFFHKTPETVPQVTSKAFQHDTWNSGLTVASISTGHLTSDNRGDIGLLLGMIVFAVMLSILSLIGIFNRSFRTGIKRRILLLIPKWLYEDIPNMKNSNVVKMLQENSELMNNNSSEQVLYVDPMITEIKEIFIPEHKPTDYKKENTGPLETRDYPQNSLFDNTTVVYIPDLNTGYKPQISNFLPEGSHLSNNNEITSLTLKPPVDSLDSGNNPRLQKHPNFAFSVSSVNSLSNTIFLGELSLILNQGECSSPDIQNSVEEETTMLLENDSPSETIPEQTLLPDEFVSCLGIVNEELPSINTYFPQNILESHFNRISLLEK
# test_details: cell-based or functional assay
Starred links: 1 amine or outer side, 2 acyl side, 3 side chain; linkers in the order of their positions; H or OH if unused. Positions of bridges follow the written chain, without caps; N, C: chain ends. Non-standard residues stand in square brackets, D forms with d. Groups on a side chain read outwards from the residue. Primed or numbered codes have the meaning given here. TMAPF = 5-(4-(2-amino-2-carboxyethyl)phenoxy)-N,N,N-trimethylpentan-1-aminium, C[N+](C)(C)CCCCCOc1ccc(C[C@H](N[*:1])C(=O)[*:2])cc1; AEF(G) = 2-amino-3-(4-(2-guanidinoethoxy)phenyl)propanoic acid, N=C(N)NCCOc1ccc(C[C@H](N[*:1])C(=O)[*:2])cc1; 6F2Nal = 2-amino-3-(6-fluoronaphthalen-2-yl)propanoic acid, O=C([C@H](Cc1ccc2cc(F)ccc2c1)N[*:1])[*:2]; Trp(7-(3-AcNH-Ph)) = CC(=O)Nc1cccc(-c2cccc3c(C[C@H](N)C(=O)O)c[nH]c23)c1; PEG2NMePEG2NMegENMeCl8Tetrazole = not defined here; 2Nal(6-OH) = N[C@@H](Cc1ccc2cc(O)ccc2c1)C(=O)O; Trp(7-Me) = Cc1cccc2c(C[C@H](N)C(=O)O)c[nH]c12; 3Pal(5-Me) = Cc1cncc(C[C@H](N)C(=O)O)c1; γGlu = O=C(O)[C@H](CCC(=O)[*:2])N[*:1]; AEF = NCCOc1ccc(C[C@H](N)C(=O)O)cc1; 3Pal = N[C@@H](Cc1cccnc1)C(=O)O; NMecPEG3a = not defined here; Pen = CC(C)(S)[C@H](N)C(=O)O; PEG2′ = not defined here; Thp = NC1(C(=O)O)CCOCC1; Sar = CNCC(=O)O
Parameter PBMC pSTAT3 IC50: see the listing below.

// solved cases for PBMC pSTAT3 IC50 follow
binder	attribute_measured	value_reported
Ac-[dR][Pen]NT[Trp(7-Me)]K(Ac)[Pen][AEF][2Nal(6-OH)][Thp]EN[3Pal][Sar]K(PEG2NMePEG2NMegENMeCl8Tetrazole)-NH2 (disulfide 2-7 (inferred); reading uncertain) [SEQ ID NO: 115]	PBMC pSTAT3 IC50	< 1 nM
Ac-[dR][Pen]NT[Trp(7-Me)]K(Ac)[Pen][AEF][2Nal(6-OH)][Thp]EN[3Pal][Sar]K([PEG2′-PEG2′-γGlu-C18OH])-NH2 (disulfide 2-7 (inferred)) [SEQ ID NO: 282]	PBMC pSTAT3 IC50	< 1 nM
Ac-X[Pen]NT[Trp(7-Me)]K(Ac)[Pen][AEF][2Nal(6-OH)][Thp]EN[3Pal][Sar]-NH2 (disulfide 2-7 (inferred); not fully specified (residue 1); printed as MeCO-k(d)-Pen(3)-N-T-7MeW-K(Ac)-Pen(3)-AEF-6OH2Nal-THP-E-N-3Pya-Sar-CONH2) [SEQ ID NO: 349]	PBMC pSTAT3 IC50	< 10 pM
Ac-[dR][Pen]NT[Trp(7-Me)]K(Ac)[Pen][AEF][6F2Nal][Thp]EN[3Pal][Sar]-NH2 (disulfide 2-7 (inferred)) [SEQ ID NO: 407]	PBMC pSTAT3 IC50	< 0.1 nM
Ac-[Pen]NT[Trp(7-Me)]K(Ac)[Pen][AEF][2Nal(6-OH)][Thp]EN[3Pal][Sar]K([PEG2′-PEG2′-γGlu-C18OH])-NH2 (disulfide 1-6 (inferred)) [SEQ ID NO: 283]	PBMC pSTAT3 IC50	< 1 nM

Look at this binder and give its reported PBMC pSTAT3 IC50. XXNTXXXXXXENXX (MeCO-k(Me)3-Pen(3)-N-T-7(3NAcPh)W-K(Ac)-Pen(3)-AEF(G)-6OH2Nal-THP-E-N-5MePyridinAla-Sar-CONH2) [SEQ ID NO: 11]
< 10 pM

Look at this binder and give its reported PBMC pSTAT3 IC50. cPEG3aCO-[Pen]NT[Trp(7-Me)]K(NMecPEG3a)[Pen][AEF][2Nal(6-OH)][Thp]EN[3Pal][Sar]-NH2 (disulfide 1-6 (inferred); not fully specified; printed as cPEG3aCO-Pen(3)-N-T-7MeW-K(NMecPEG3a)-Pen(3)-AEF-6OH2Nal-THP-E-N-3Pya-Sar-CONH2; reading uncertain) [SEQ ID NO: 319]
< 0.1 nM

Look at this binder and give its reported PBMC pSTAT3 IC50. Ac-[dR][Pen]NT[Trp(7-Me)]K(Ac)[Pen][TMAPF][2Nal(6-OH)][Thp]EN[3Pal][Sar]-NH2 (disulfide 2-7 (inferred)) [SEQ ID NO: 59]
< 0.1 nM

Look at this binder and give its reported PBMC pSTAT3 IC50. Ac-[dR][Pen]NT[Trp(7-(3-AcNH-Ph))]K(Ac)[Pen][AEF(G)][2Nal(6-OH)][Thp]EN[3Pal(5-Me)][Sar]-NH2 (disulfide 2-7 (inferred)) [SEQ ID NO: 15]
< 10 pM

Look at this binder and give its reported PBMC pSTAT3 IC50. Ac-[Pen]NT[Trp(7-Me)]K(Ac)[Pen][AEF][2Nal(6-OH)][Thp]EN[3Pal][Sar]-NH2 (disulfide 1-6 (inferred)) [SEQ ID NO: 428]
< 10 pM
